Data origin, for the record: PubChem BioAssay AID1963831

# System: 889142-216-R-J1-PDC complex spheroid viability
# EXPERIMENTAL_DETAILS: Anticancer human tumor 889142-216-R-J1-PDC patient-derived bladder carcinoma cell line growth inhibition [POLQ]
# MEASUREMENT_CONDITIONS: second compound 0.0316 µM; first compound 0.0316 µM; hits give low values
Measured viability, T/C, listed per entry for reference.
// return numeric value only (unit: %, not printed)

MOLECULE: O=C(c1cc(Cc2n[nH]c(=O)c3ccccc23)ccc1F)N1CCN(C(=O)C2CC2)CC1 + COC1C(OC(N)=O)C(O)C(Oc2ccc3c(O)c(NC(=O)c4ccc(O)c(CC=C(C)C)c4)c(=O)oc3c2C)OC1(C)C
viability, T/C (%): 93
--
MOLECULE: O=c1[nH]cc(F)c(=O)[nH]1 + COC1C(OC(N)=O)C(O)C(Oc2ccc3c(O)c(NC(=O)c4ccc(O)c(CC=C(C)C)c4)c(=O)oc3c2C)OC1(C)C
viability, T/C (%): 98.8
--
MOLECULE: CC[C@@]1(O)C(=O)OCc2c1cc1n(c2=O)Cc2cc3c(CN(C)C)c(O)ccc3nc2-1 + Nc1ccc(C#CCN(C(=O)Cc2ncc(C(F)(F)F)cc2C(F)(F)F)c2ccc(F)cc2)nn1
viability, T/C (%): 67.5

Form field: reported viability, T/C of CC1COCCN1c1cc(C2(O)CC3CCC(C2)O3)c2cnn(-c3ccn[nH]3)c2n1 (stereo unspecified) + Cc1cccc(N(C)C(=O)C2C(O)CCN2c2nc(C)cc(C(F)(F)F)c2C#N)c1
66.5

Requested field: viability, T/C. Item: Nc1ccn(C2OC(CO)C(O)C2(F)F)c(=O)n1 (stereo unspecified) + Cc1cccc(N(C)C(=O)C2C(O)CCN2c2nc(C)cc(C(F)(F)F)c2C#N)c1
67.7

I have this molecule here, O=c1[nH]cc(F)c(=O)[nH]1 + Cc1cccc(N(C)C(=O)C2C(O)CCN2c2nc(C)cc(C(F)(F)F)c2C#N)c1 , and I need its recorded viability, T/C.
96

* * *

# Tested on: 889142-216-R-J1-PDC complex spheroid viability
# EXPERIMENTAL_DETAILS: Anticancer human tumor 889142-216-R-J1-PDC cell line growth inhibition [POLQ];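 further: spheroids exposed to compounds for seven days; 100% = DMSO vehicle control viability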
# MEASUREMENT_CONDITIONS: second compound 1 µM; first compound 3.16 µM; hits give low values
VALUE_KIND: viability, T/C (%)
Return type: number; implicit unit %.

Here's what some known entries look like.
MOLECULE: COc1cc(C2c3cc4c(cc3C(OC3OC5COC(C)OC5C(O)C3O)C3COC(=O)C23)OCO4)cc(OC)c1O (stereo not given) + Nc1ccc(C#CCN(C(=O)Cc2ncc(C(F)(F)F)cc2C(F)(F)F)c2ccc(F)cc2)nn1
viability, T/C (%): 66

MOLECULE: COc1cc2cc(C(=O)CCC(=O)O)sc2cc1OC + Cc1cccc(N(C)C(=O)C2C(O)CCN2c2nc(C)cc(C(F)(F)F)c2C#N)c1
viability, T/C (%): 102

MOLECULE: O=c1[nH]cc(F)c(=O)[nH]1 + COC1C(OC(N)=O)C(O)C(Oc2ccc3c(O)c(NC(=O)c4ccc(O)c(CC=C(C)C)c4)c(=O)oc3c2C)OC1(C)C
viability, T/C (%): 77.6

MOLECULE: C#Cc1c(F)ccc2cc(O)cc(-c3ncc4c(N5CC6CCC(C5)N6)nc(OCC56CCCN5CC(F)C6)nc4c3F)c12 (stereo not given) + Cc1cccc(N(C)C(=O)C2C(O)CCN2c2nc(C)cc(C(F)(F)F)c2C#N)c1
viability, T/C (%): 108

Please find the next molecule below.
So what does the record say about viability, T/C for O=C(c1cc(Cc2n[nH]c(=O)c3ccccc23)ccc1F)N1CCN(C(=O)C2CC2)CC1 + COC1C(OC(N)=O)C(O)C(Oc2ccc3c(O)c(NC(=O)c4ccc(O)c(CC=C(C)C)c4)c(=O)oc3c2C)OC1(C)C ?
82.5
